PROCEDURE SUMMARY: Quantitative High-Throughput drug screen in 47 multiple myeloma cell lines against the NCATS MIPE library collection: U266_ATCC cell viability assay (AID 1919864); note: nearly all actives have a fitted effect of over 35% in size
EXPERIMENTAL PARAMETERS: U266 myeloma viability, CellTiter-Glo ATP luminescence, 48 h; series mostly up to 45.8 µM
Results filed as inconclusive are left out. Activity calls are given as the source filed them. Calls come from the whole dose curve; as a rule, active = well fitted cell-killing curve with a large enough effect; inconclusive = small, poorly fitted or top-dose-only effect, or effect the other way; inactive = no such curve, though single readings can be large or run the other way.
Labels: yes (1) = active, no (0) = inactive

MOLECULE | ANSWER LABEL
CCCCc1ccc(NS(=O)(=O)c2ccc(C)c(C(=O)N3CCN(c4cccc(C)c4C)CC3)c2)cc1 | yes (1)
O=C(O)c1nc(=O)[nH]c(=O)[nH]1 | no (0)
CNc1nc(Nc2ccc(C(=O)N3CCOCC3)cc2OC)ncc1Cl | no (0)
COc1c(C)cnc(Cn2cnc3c(Cl)nc(N)nc32)c1C | yes (1)
C[C@@H]1C[C@H]2[C@@H]3CCC4=CC(=O)C=C[C@]4(C)[C@@]3(F)[C@@H](O)C[C@]2(C)[C@@]1(O)C(=O)CO | no (0)
COC1CCC(C(=O)c2ccc3nc4c(cc3c2)CCCO4)CC1 (stereo not drawn) | yes (1)
COc1ccc(-c2oc3c(CC=C(C)C)c(O)cc(O)c3c(=O)c2O)cc1 | yes (1)
Cc1cc2nc3c(=O)[nH]c(=O)nc-3n(CC(O)C(O)C(O)CO)c2cc1C (stereo not drawn) | no (0)
CN1CCc2c(n(Cc3ccc(C(=O)NO)cc3)c3ccccc23)C1 | yes (1)
CC1(C)OC2CC3C4CC(F)C5=CC(=O)C=CC5(C)C4C(O)CC3(C)[C@]2(C(=O)CO)O1 (stereo partly drawn) | no (0)
COc1ccc2nc3cc(Cl)ccc3c(Nc3cc(CN4CCCC4)c(O)c(CN4CCCC4)c3)c2n1 | yes (1)
CCOc1ccccc1N=Nc1c(C)[nH]n(-c2nc(-c3ccccc3)cs2)c1=O | yes (1)
CC(NCCc1ccc(O)cc1)C(O)c1ccc(O)cc1 (stereo not drawn) | no (0)
Nc1ncnc2c1ncn2[C@@H]1O[C@H](CO)[C@@H](O)[C@@H]1O | yes (1)
Nc1nc(Cl)nc2c1ncn2[C@@H]1O[C@H](CO)[C@@H](O)[C@H]1F | yes (1)
Cc1cc(OCCCS(C)(=O)=O)cc(C)c1-c1cccc(COc2ccc3c(c2)OC[C@H]3CC(=O)O)c1 | no (0)
CC1(COc2ccc3c(c2)ncn3-c2ccc3cccc(N4CCC(N)CC4)c3n2)COC1 | yes (1)
Cc1csc(-c2nnc(Nc3ccc(Oc4ncccc4-c4ccnc(N)n4)cc3)c3ccccc23)c1 | yes (1)
O=C(O)CCNc1cc(N2CCc3ccccc3CC2)nc(-c2ccccn2)n1 | no (0)
Cc1ccc(C(=O)N(CCCN)[C@@H](c2nc3cc(Cl)ccc3c(=O)n2Cc2ccccc2)C(C)C)cc1 | yes (1)
Cc1nc(NC(=O)N2CCC[C@@H]2C(N)=O)sc1-c1csc(C(C)(C)C)n1 | yes (1)
CN1C(=O)C[C@H](C(=O)N[C@@H](Cc2cnc[nH]2)C(=O)N2CCC[C@@H]2C(N)=O)NC1=O | no (0)
CN1c2ccccc2C(=O)N2CCc3c([nH]c4ccccc34)C21 (stereo not drawn) | yes (1)
COc1ccc2cc1Oc1ccc(cc1)C[C@H]1c3cc(c(OC)cc3CCN1C)Oc1c(OC)c(OC)cc3c1[C@H](C2)N(C)CC3 | yes (1)
Cc1ccc2c(c1)c1c(n2CCc2ccc(C)nc2)CCN(C)C1 | no (0)
COc1ccc(-c2cc3nccn3c(Nc3ncccc3C(N)=O)n2)cc1OC | yes (1)
CN[C@@H]1CN(c2ccc3c(=O)c(C(=O)O)cn(-c4nccs4)c3n2)C[C@@H]1OC | yes (1)
O[C@@H](COc1cccc2ncccc12)CN1CCN(C2c3ccccc3[C@@H]3[C@H](c4ccccc42)C3(F)F)CC1 (stereo partly drawn) | yes (1)
CN1CCC(COc2cnc(-c3cccc(Cn4nc(-c5cccc(C#N)c5)ccc4=O)c3)nc2)CC1 | yes (1)
COc1cc2c(cc1OC)[C@@H]1Cc3ccc(OC)c(OC)c3CN1CC2 | yes (1)
C[C@@H](N)c1ccc(C(=O)Nc2ccnc3[nH]ccc23)cc1 | yes (1)
CN(C)c1ccc(-c2nc3ncc(Cl)c(N4CCN(CC(=O)Nc5nccs5)CC4)c3[nH]2)cc1 | yes (1)
COc1cc(N2CCN(C)CC2)ccc1Nc1nc(N)c(C(=O)c2c(Cl)cccc2Cl)s1 | yes (1)
N#CC(=C1Nc2ccccc2S1)c1ccnc(OCc2ccc(CN3CCOCC3)cc2)n1 | yes (1)
CN[C@H]1[C@@H](O[C@@H]2[C@H](O[C@@H]3[C@@H](O)[C@@H](O)[C@@H](N=C(N)N)[C@@H](O)[C@@H]3N=C(N)N)O[C@H](C)[C@@]2(O)C=O)O[C@@H](CO)[C@@H](O)[C@H]1O | no (0)
CNC1CCC(N(Cc2cccc(-c3ccncc3)c2)C(=O)c2sc3ccccc3c2Cl)CC1 (stereo not drawn) | yes (1)
O=C(Nc1cccc(Cl)c1)Nc1ncc(CCNc2ncnc3ccsc23)s1 | yes (1)
CCC(c1ccc(O)cc1)C(CC)c1ccc(O)cc1 (stereo not drawn) | yes (1)
